These data points were gathered from ChEMBL document CHEMBL1151989.

- System: NCI-H460
- ASSAY_OVERVIEW: Antitumor activity against human NCI-H460 cells by sulforhodamine B assay
- Type: functional
QUANTITY_NAME: GI50 (µg/mL)

Worked set:
{"QUERY_SMILES": "COc1cc(/C=C\\c2ccc(OC)c(OP(=O)([O-])[O-])c2OP(=O)([O-])[O-])cc(OP(=O)([O-])[O-])c1OC.[Li+].[Li+].[Li+].[Li+].[Li+].[Li+]", "QUANTITY_NAME": "GI50", "QUANTITY_UNIT": "µg/mL", "RECORDED_MEASUREMENT": 0.35}
{"QUERY_SMILES": "COc1ccc(/C=C\\c2cc(OC)c3c(c2)OCO3)cc1O", "QUANTITY_NAME": "GI50", "QUANTITY_UNIT": "µg/mL", "RECORDED_MEASUREMENT": 0.043}
{"QUERY_SMILES": "COc1cc(/C=C\\c2ccc(OC)c(OP(=O)([O-])[O-])c2OP(=O)([O-])[O-])cc(OP(=O)([O-])[O-])c1OC.[Mg+2].[Mg+2].[Mg+2]", "QUANTITY_NAME": "GI50", "QUANTITY_UNIT": "µg/mL", "RECORDED_MEASUREMENT": 0.32}
{"QUERY_SMILES": "COc1cc(/C=C\\c2ccc(OC)c(OP(=O)([O-])[O-])c2OP(=O)([O-])[O-])cc(OP(=O)([O-])[O-])c1OC.[Zn+2].[Zn+2].[Zn+2]", "QUANTITY_NAME": "GI50", "QUANTITY_UNIT": "µg/mL", "RECORDED_MEASUREMENT": 3.5}
{"QUERY_SMILES": "COc1cc(/C=C\\c2ccc(OC)c(OP(=O)([O-])[O-])c2OP(=O)([O-])[O-])cc(OC)c1OC.[Na+].[Na+].[Na+].[Na+]", "QUANTITY_NAME": "GI50", "QUANTITY_UNIT": "µg/mL", "RECORDED_MEASUREMENT": 3.3}

a = COc1cc(/C=C\c2ccc(OC)c(OP(=O)([O-])[O-])c2OP(=O)([O-])[O-])cc2c1OCO2.[Na+].[Na+].[Na+].[Na+]
b = COc1ccc(/C=C\c2cc(OC)c3c(c2)OCO3)cc1OP(=O)([O-])[O-].[Na+].[Na+]
Qu. Between a and b , which one shows the smaller GI50 number? // respond with label for picked entry
Ans. b

----------
- ASSAY_OVERVIEW: Aqueous solubility of compound in water
- Format: physicochemical
QUANTITY_NAME: solubility (mg/mL)
Express your answer in mg/mL, writing the number without its unit.

Qu. Need solubility, item COc1ccc(/C=C\c2cc(OC)c(OC)c(OC)c2)cc1OP(=O)([O-])[O-].[Na+].[Na+] [FOSBRETABULIN DISODIUM]
Ans. 20

----------
- Tested on: NCI-H460
- ASSAY_OVERVIEW: Antitumor activity against human NCI-H460 cells by sulforhodamine B assay
- Assay type: functional
QUANTITY_NAME: GI50 (µg/mL)

{"QUERY_SMILES": "COc1cc(/C=C\\c2ccc(OC)c(OP(=O)([O-])[O-])c2OP(=O)([O-])[O-])cc2c1OCO2.[Li+].[Li+].[Li+].[Li+]", "MEASURED_ON": "NCI-H460", "RECORDED_MEASUREMENT": 2.7}

P = COc1ccc(/C=C\c2cc(O)c(OC)c(OC)c2)c(O)c1O
Q = COc1ccc(/C=C\c2cc(OC)c(OC)c(OC)c2)c(O)c1O
R = COc1ccc(/C=C\c2cc(OC)c(OC)c(OC)c2)cc1O
S = COc1cc(/C=C\c2ccc(OC)c(OP(=O)([O-])[O-])c2OP(=O)([O-])[O-])cc(OP(=O)([O-])[O-])c1OC.[Rb+].[Rb+].[Rb+].[Rb+].[Rb+].[Rb+]
Qu. Could you please sort these 4 entries by GI50 from high to low? Form entry: labels listed in requested order.
Ans. S, P, Q, R
